# Test system: HIV-1 (NL4-3 strain)
# experimental_details: Assay for Inhibition of HIV Replication (kinetic assay, MT4-gag-GFP reporter cell line; VIKING)
# Format: cell-based
# recorded_conditions: MT4-GFP cells infected with HIV-1 NL4-3; 100% normal human serum (NHS); read-out: VIKING IP50 (nM) with 100% NHS
// reported IC50 per item
Just the number in nM, nothing appended.

Study these solved cases before continuing.
# compound, unit_info, endpoint_value
data = [
    ("CCNC1CC2C3OCCCN3C(=O)c3c(O)c(=O)c(C(=O)NCc4cccc(F)c4F)c1n32 (stereo not drawn) [Compound 192]", "nM", 92.3),
    ("CCNC1CC2C3OCCCN3C(=O)c3c(O)c(=O)c(C(=O)NCc4cccc(F)c4F)c1n32 (stereo not drawn) [Compound 189]", "nM", 3870),
    ("O=C(NCc1ccc(F)cc1F)c1c2n3c(c(O)c1=O)C(=O)N1CCCCOC1C3CC2 (single isomer, unassigned) [Compound 71]", "nM", 30.7),
    ("CCNC1CC2C3OCCCN3C(=O)c3c(O)c(=O)c(C(=O)NCc4ccc(F)cc4F)c1n32 (stereo not drawn) [Compound 204]", "nM", 4830),
    ("O=C(NCc1cccc(F)c1F)c1c2n3c(c(O)c1=O)C(=O)N1C4CCC(C4)OC1C3CC2 (stereo not drawn) [Compound 166]", "nM", 50.6),
    ("O=C(NCc1c(F)cccc1F)c1c2n3c(c(O)c1=O)C(=O)N1CCOC1C3CC2 (single isomer, unassigned) [Compound 17]", "nM", 7940),
    ("CC(=O)N1C[C@H](C)N2C(=O)c3c(O)c(=O)c(C(=O)NCc4cccc(Cl)c4F)c4n3C(CC4)C12 (stereo partly drawn)", "nM", 24.5),
    ("O=C(NCc1ccc(F)cc1F)c1c2n3c(c(O)c1=O)C(=O)N1CCCCOC1C3CC2 (single isomer, unassigned) [Compound 70]", "nM", 3920),
    ("CCNC1CC2C3OCCCN3C(=O)c3c(O)c(=O)c(C(=O)NCc4ccc(F)cc4F)c1n32 (stereo not drawn) [Compound 203]", "nM", 25.8),
    ("O=C(NCc1ccc(F)cc1F)c1c2n3c(c(O)c1=O)C(=O)N1CCOC1C3CC2 (single isomer, unassigned) [Compound 9]", "nM", 1130),
]

Lab note: CCNC1CC2C3OCCCN3C(=O)c3c(O)c(=O)c(C(=O)NCc4cccc(Cl)c4F)c1n32 (stereo not drawn) [Compound 199] gave IC50 of 42.9

* * *

# Tested on: HIV-1 (NL4-3 strain)
# experimental_details: Assay for Inhibition of HIV Replication (kinetic assay, MT4-gag-GFP reporter cell line; VIKING)
# Assay type: cell-based
# recorded_conditions: MT4-GFP cells infected with HIV-1 NL4-3; 100% normal human serum (NHS); read-out: VIKING IP50 (nM) with 100% NHS
assay_endpoint: log10 IC50 (log10 of the value in nM)
Base-10 log of IC50, unit nM.

# molecule, log10 IC50
measured = [
    ("O=C(NCc1cccc(F)c1F)c1c2n3c(c(O)c1=O)C(=O)N1C4CCC(C4)OC1C3CC2 (centres unmarked) [Compound 167]", 3.53),
    ("C[C@H]1COC2C3CCc4c(C(=O)NCc5cccc(Cl)c5F)c(=O)c(O)c(n43)C(=O)N21 (single isomer, unassigned) [Compound 30]", 2.92),
    ("CCNC1CC2C3OCCCN3C(=O)c3c(O)c(=O)c(C(=O)NCc4cccc(Cl)c4F)c1n32 (centres unmarked) [Compound 194]", 1.55),
]

Lab note: C[C@H]1COC2C3CCc4c(C(=O)NCc5ccc(F)cc5F)c(=O)c(O)c(n43)C(=O)N21 (single isomer, unassigned) [Compound 28] gave log10 IC50 of 2.41

Lab note: C[C@@H]1COC2C3CCc4c(C(=O)NCc5ccc(F)cc5F)c(=O)c(O)c(n43)C(=O)N21 (single isomer, unassigned) gave log10 IC50 of 3.19

Lab note: CN1CCCN2C(=O)c3c(O)c(=O)c(C(=O)NCc4cccc(Cl)c4F)c4n3C(CC4)C12 (single isomer, unassigned) [Compound 85] gave log10 IC50 of 1.25

Lab note: O=C(NCc1ccccc1F)c1c2n3c(c(O)c1=O)C(=O)N1CCOC1C3CC2 (single isomer, unassigned) [Compound 12] gave log10 IC50 of 2.95

Lab note: CCNC1CC2C3OCCCN3C(=O)c3c(O)c(=O)c(C(=O)NCc4cccc(Cl)c4F)c1n32 (centres unmarked) [Compound 198] gave log10 IC50 of 1.99

Lab note: O=C(NCc1ccc(F)c(Cl)c1F)c1c2n3c(c(O)c1=O)C(=O)N1C4CCC(C4)OC1C3CC2 (centres unmarked) [Compound 158] gave log10 IC50 of 4.21

* * *

# Tested on: HIV-1 (NL4-3 strain)
# experimental_details: Assay for Inhibition of HIV Replication (kinetic assay, MT4-gag-GFP reporter cell line; VIKING)
# Format: cell-based
# recorded_conditions: MT4-GFP cells infected with HIV-1 NL4-3; 0% normal human serum (NHS); read-out: VIKING IP50 (nM) with 0% NHS
Exam item: assign label 1 to entries whose IC50 is below 4 nM and label 0 to entries at or above 4 nM. Note that a value of exactly 4 nM receives label 0.

Below are worked cases with known answers.
# molecule, discrete_label
measured = [
    ("O=C(NCc1cccc(Cl)c1F)c1c2n3c(c(O)c1=O)C(=O)N1CCCOC1C3CC2 (single isomer, unassigned)", "label 1"),
    ("O=C(NCc1ccc(F)cc1)c1c2n3c(c(O)c1=O)C(=O)N1CCCOC1C3CC2 (single isomer, unassigned) [Compound 52]", "label 1"),
    ("O=C(NCc1ccc(F)cc1)c1c2n3c(c(O)c1=O)C(=O)N1C4CCC(C4)OC1C3CC2 (stereo not shown) [Compound 163]", "label 0"),
    ("CC(=O)N1C[C@H](C)N2C(=O)c3c(O)c(=O)c(C(=O)NCc4cccc(Cl)c4F)c4n3C(CC4)C12 (stereo partly shown)", "label 1"),
    ("CCNC1CC2C3OCCCN3C(=O)c3c(O)c(=O)c(C(=O)NCc4cccc(Cl)c4F)c1n32 (stereo not shown) [Compound 193]", "label 0"),
]

Q: For this molecule, is IC50 lower than 4 nM? O=C(NCc1ccc(F)cc1F)c1c2n3c(c(O)c1=O)C(=O)N1CCCOC1C3CC2 (single isomer, unassigned) [Compound 56]
Result: label 1

Q: For this molecule, is IC50 lower than 4 nM? O=C(NCc1cccc(Cl)c1F)c1c2n3c(c(O)c1=O)C(=O)N1C4CCC(C4)OC1C3CC2 (stereo not shown) [Compound 155]
Result: label 1

Q: For this molecule, is IC50 lower than 4 nM? O=C(NCc1ccc(F)c(Cl)c1F)c1c2n3c(c(O)c1=O)C(=O)N1C4CCC(C4)OC1C3CC2 (stereo not shown) [Compound 159]
Result: label 0

Q: For this molecule, is IC50 lower than 4 nM? O=C(NCc1ccccc1F)c1c2n3c(c(O)c1=O)C(=O)N1CCOC1C3CC2 (single isomer, unassigned) [Compound 13]
Result: label 1

Q: For this molecule, is IC50 lower than 4 nM? O=C(NCc1cccc(Cl)c1F)c1c2n3c(c(O)c1=O)C(=O)N1CCCCOC1C3CC2 (single isomer, unassigned) [Compound 65]
Result: label 1

Q: For this molecule, is IC50 lower than 4 nM? O=C(NCc1ccc(F)cc1F)c1c2n3c(c(O)c1=O)C(=O)N1CCCOC1C3CC2 (single isomer, unassigned) [Compound 57]
Result: label 1

Q: For this molecule, is IC50 lower than 4 nM? CCNC1CC2C3OCCCN3C(=O)c3c(O)c(=O)c(C(=O)NCc4ccc(F)cc4F)c1n32 (stereo not shown) [Compound 201]
Result: label 0

Q: For this molecule, is IC50 lower than 4 nM? CCNC1CC2C3OCCCN3C(=O)c3c(O)c(=O)c(C(=O)NCc4ccc(F)cc4F)c1n32 (stereo not shown) [Compound 204]
Result: label 0

* * *

# System: HIV-1 (NL4-3 strain)
# experimental_details: Assay for Inhibition of HIV Replication (kinetic assay, MT4-gag-GFP reporter cell line; VIKING)
# Type: cell-based
# recorded_conditions: MT4-GFP cells infected with HIV-1 NL4-3; 0% normal human serum (NHS); read-out: VIKING IP50 (nM) with 0% NHS
Exam item: assign 1 to entries whose IC50 is below 1 nM and 0 to entries at or above 1 nM. Note that a value of exactly 1 nM receives 0.

Below are worked cases with known answers.
# molecule, discrete_label
measured = [
    ("COC1CC2C3N(C)CCN3C(=O)c3c(O)c(=O)c(C(=O)NCc4ccc(F)cc4F)c1n32 (stereo not drawn) [Compound 126]", 0),
    ("C[C@@H]1CN2C(=O)c3c(O)c(=O)c(C(=O)NCc4cccc(Cl)c4F)c4n3C(CC4)C2O1 (single isomer, unassigned) [Compound 40]", 0),
    ("O=C(NCc1c(F)cc(F)cc1F)c1c2n3c(c(O)c1=O)C(=O)N1CCOC1C3CC2 (single isomer, unassigned) [Compound 19]", 1),
    ("C[C@@H]1COC2C3CCc4c(C(=O)NCc5ccc(F)cc5F)c(=O)c(O)c(n43)C(=O)N21 (single isomer, unassigned) [Compound 34]", 1),
]

Here's the next entry for you.
Q: For this molecule, is IC50 lower than 1 nM? O=C(NCc1ccc(F)c(Cl)c1)c1c2n3c(c(O)c1=O)C(=O)N1CCOC1C3CC2 (single isomer, unassigned) [Compound 25]
Result: 1

The measurements presented in this section are drawn from patent US10829499B2.
